assay-summary: Dye displacement membrane assay (liposome-encapsulated host•dye ensembles)
test-context: dye displacement, CB7•BE-, CB8•MV•5OH-Trp- or CB8•MV•2,6-ANS-loaded liposomes
Excerpt: Supplementary Figure 13 | Graphical representation of membrane assays using dye displacement for signaling. Diffusion of analytes through a lipid membrane is detected by displacement of the dye from (a) a host•dye or (b) a host•dye•quencher complex, leading to reduction or enhancement in emission intensity. […] (b) Evolution of fluorescence intensity after addition of dimethylbenzylamine (DMBA) to CB7•PAL-loaded liposomes (λexc = 347 nm, λobs = 500 nm). […]
property-name: membrane permeability (in words)

NCCCCCN = membrane impermeable
NCCCNCCCCNCCCN = membrane impermeable
N[C@@H](Cc1ccccc1)C(=O)O = membrane impermeable

---

assay-summary: FARMA: permeation of analytes into FAR-loaded liposomes (fluorescence, cuvette or stopped-flow)
test-context: FARMA with FAR-loaded liposomes or GUVs
Method: Elementary physical parameters, such as permeability coefficients, can be extracted from the full kinetic FARMA data. This kinetic profile → parameter mapping requires some assumptions to be made in regard to the permeation mechanism. […] A solution of 2.5 mg/mL of POPC and 0.33 mg/mL of POPS in chloroform was purged with nitrogen and dried overnight under high-pressure vacuum. […] Complete removal of non-encapsulated FAR is indicated by the absence of a significant fluorescence change upon Trp addition. […]
property-name: membrane permeability (in words)

CNC[C@H](O)c1ccc(O)c(O)c1 [adrenaline] = very slowly permeating
NCCc1ccc(O)c(O)c1 [dopamine] = very slowly permeating

---

assay-summary: FARMA: permeation of analytes into FAR-loaded liposomes (fluorescence, cuvette or stopped-flow)
test-context: not told, pH 7
property-name: Papp at 16 µM (nm/s)
Dear colleague, please return just the value in nm/s, with no unit written.

In: Item NCCc1c[nH]c2ccc(O)cc12 : provide Papp at 16 µM
Out: 0.04

---

Listed here: items and their measured Papp.
assay-summary: in vitro
test-context: not told, pH 7
Express it in ×10⁻⁶ cm/s; write the number only.

Oc1ccccc1 = 112

Alright, here's another compound for you.
In: Check the records and state Papp for CC12CC3CC(C)(C1)CC(N)(C3)C2 [Memantine, 3,5-dimethyladamantan-1-amine, reference compound]
Out: 24

---

assay-summary: FARMA: permeation of analytes into FAR-loaded liposomes (fluorescence, cuvette or stopped-flow)
test-context: source data of Fig. 5
Each entry falls in a class defined on log(kobs); the bands are bottom: < 0.3; middle: ≥ 0.3 and < 0.6; top: ≥ 0.6

Record excerpt, results attached:
c1ccc2[nH]ncc2c1 = middle
Nc1ccc(F)cc1 = top
Nc1ccc(I)cc1 = middle
c1ccc2[nH]ccc2c1 = bottom
Oc1ccc(F)cc1 = middle
Oc1ccc(Cl)cc1 = middle
Cc1ccc(C)cc1 = top
Nc1ccccc1 = top
NCCc1ccccc1 = bottom

Let us examine a further case.
In: Using the reported log(kobs), which band applies to CCc1ccc(O)cc1 ?
Out: bottom

---

Overview of recorded kobs for various compounds
assay-summary: FARMA: permeation of analytes into FAR-loaded liposomes (fluorescence, cuvette or stopped-flow)
test-context: source data of Fig. 5
Format: numeric value only, no unit, no commentary.

Worked examples, 5 compounds total:
Cc1ccc(C)cc1 = 17
Nc1ccc(Br)cc1 = 4
Oc1ccc(Cl)cc1 = 2.2
Oc1ccc(F)cc1 = 2.8
c1ccc2[nH]cnc2c1 = 2.7

In: Output kobs of c1ccc2[nH]ccc2c1
Out: 1.8

In: Give the value of kobs reported for the following: Nc1ccc(F)cc1
Out: 4.4

In: Please indicate kobs recorded for Nc1ccc(Cl)cc1
Out: 4

In: Identify measured kobs corresponding to N#Cc1ccc(N)cc1
Out: 6.5

In: Look up and report measured kobs for this entry: Nc1ccccc1
Out: 7.5

---

assay-summary: FARMA: permeation of analytes into FAR-loaded liposomes (fluorescence, cuvette or stopped-flow)
test-context: source data of Fig. 5
property-name: kobs
I only need the number, thanks.

These solved cases illustrate the format of a correct answer.
Nc1ccc(I)cc1 = 3.1
CN(C)c1ccc(C#N)cc1 = 0.68

In: Entry c1ccc2[nH]ncc2c1 needs its kobs filled in; supply it.
Out: 2.4

In: Read off the recorded kobs for O=C1CCC(=O)N1c1ccccc1 [N-phenylsuccinimide]
Out: 1.1

In: Find the measured kobs of CCC(=O)Nc1ccc(Cl)c(Cl)c1 and report it.
Out: 42

In: Supply reported kobs belonging to this compound: Cc1ccccc1O
Out: 0.33

---

Measured kobs values are reported for all entries that follow.
assay-summary: FARMA: permeation of analytes into FAR-loaded liposomes (fluorescence, cuvette or stopped-flow)
test-context: source data of Fig. 5
The response must contain the number and no unit.

Before answering, review these 5 worked examples.
O=[N+]([O-])c1ccc(O)cc1 [4NO2-phenol] = 38
Oc1ccc(I)cc1 [4I-phenol, 4-iodophenol] = 0.69
CCc1ccc(O)cc1 [4Et-phenol, 4-ethylphenol] = 0.24
NCCc1ccccc1 [phenethylamine] = 0.22
N#Cc1ccccc1O [2CN-phenol, 2-cyanophenol] = 10

In the following, a different compound is considered.
In: Annotate the compound Nc1c(F)c(F)c(F)c(F)c1F [pentafluoroaniline] with its measured kobs.
Out: 0.51

---

assay-summary: FARMA: permeation of analytes into FAR-loaded liposomes (fluorescence, cuvette or stopped-flow)
test-context: monoexponential fit; analyte 40 µM (bulk), FAR-2 ca. 500 µM in the liposome interior; 20% error
Please use yes for kobs under 3 s–1 and no for everything else, ties included.

Before answering, review these 10 worked examples.
c1ccc2[nH]ccc2c1 = yes
Nc1c(F)c(F)c(F)c(F)c1F = yes
O=C1CCC(=O)N1c1ccccc1 [N-phenylsuccinimide] = yes
Cc1ccc(C)cc1 = no
Nc1ccc(I)cc1 = no
N#Cc1ccc(N)cc1 = no
Nc1ccc(Cl)cc1 = no
Nc1ccc(F)cc1 = no
CCC(=O)Nc1ccc(Cl)c(Cl)c1 = no
O=[N+]([O-])c1ccc(O)cc1 = no

In: Report whether reported kobs is lower than 3 s–1 (strictly) for c1ccc2[nH]cnc2c1
Out: yes

In: Criterion: kobs strictly below 3 s–1. Is it met by N#Cc1ccccc1O ?
Out: no

In: Confirm or reject: kobs of Nc1ccc(Br)cc1 lies strictly below 3 s–1
Out: no

In: Dear reviewer, please state whether CN(C)c1ccc(C#N)cc1 has kobs strictly beneath 3 s–1.
Out: yes

In: Record Oc1ccc(I)cc1 : is its kobs strictly below 3 s–1?
Out: yes

In: Is 3 s–1 strictly greater than the compound's reported kobs? compound: Cc1ccccc1O
Out: yes

In: API: query returns whether the compound falls strictly under 3 s–1 in kobs. Query: Oc1ccc(Cl)cc1
Out: yes

In: is_below(kobs, 3 s–1) for Oc1ccc(F)cc1 ?
Out: yes

---

assay-summary: FARMA: permeation of analytes into FAR-loaded liposomes (fluorescence, cuvette or stopped-flow)
test-context: not told, pH 7
property-name: Papp at 100 µM
Your answer should be a number followed by the unit of measure.

In: Given the compound CNC(=C[N+](=O)[O-])NCCSCc1ccc(CN(C)C)o1 [Ranitidine, ranitidine, reference compound] , write its reported Papp at 100 µM.
Out: 0.013 ×10⁻⁶ cm/s

---

assay-summary: FARMA: permeation of analytes into FAR-loaded liposomes (fluorescence, cuvette or stopped-flow)
test-context: source data of Fig. 5
Method: Elementary physical parameters, such as permeability coefficients, can be extracted from the full kinetic FARMA data. This kinetic profile → parameter mapping requires some assumptions to be made in regard to the permeation mechanism. […] A solution of 2.5 mg/mL of POPC and 0.33 mg/mL of POPS in chloroform was purged with nitrogen and dried overnight under high-pressure vacuum. […] Complete removal of non-encapsulated FAR is indicated by the absence of a significant fluorescence change upon Trp addition. […]
property-name: log(kobs)

# example entries with known answers
N#Cc1ccccc1O [2CN-phenol, 2-cyanophenol] = 1
O=[N+]([O-])c1ccc(O)cc1 [4NO2-phenol] = 1.58
N#Cc1ccc(N)cc1 [4CN-aniline, 4-cyanoaniline] = 0.8129
CCC(=O)Nc1ccc(Cl)c(Cl)c1 [propanil] = 1.623
c1ccc2[nH]cnc2c1 [benzimidazole] = 0.4314
CN(C)c1ccc(C#N)cc1 [DMABN, 4-(N,N-dimethylamino) benzonitrile] = -0.1675

In: Find the measured log(kobs) of Cc1ccccc1O [2Me-phenol, 2-methylphenol] and report it.
Out: -0.4815

In: // fetch log(kobs) given entry Nc1ccc(Br)cc1 [4Br-aniline, 4-bromoaniline]
Out: 0.6021

In: Dear colleague, please send me the reported log(kobs) for Nc1c(F)c(F)c(F)c(F)c1F [pentafluoroaniline] when you can.
Out: -0.2924

In: Provide log(kobs) value for the following compound: O=C1CCC(=O)N1c1ccccc1 [N-phenylsuccinimide]
Out: 0.04139

In: For Oc1ccc(I)cc1 [4I-phenol, 4-iodophenol] , write its log(kobs).
Out: -0.1611
